system: enzyme (SP-Sepharose HP fraction) derived from Sphingobacterium sp. strain FERM BP-8124; type: biochemical; details: Table 15-2; carboxy 100 mM, L-Gln 150 mM, 0.33 units, pH 9.0, 25° C., 1.5 hours; 0.1% Tween-80 with L-Tyr-OMe
Residues, ends and D or L forms follow the SMILES beside them.
Overview of reported Produced peptide across a group of compounds:
Supply the numeric figure in mM, leaving out any unit text.

compound="NC(=O)CC[C@H](NC(=O)[C@@H](N)CC(=O)O)C(=O)O [α-L-Asp-L-Gln] (H-Asp-Gln-OH)" result_units=mM test_result=0.05
compound="NC(=O)CC[C@H](NC(=O)[C@@H](N)CCCN=C(N)N)C(=O)O [L-Arg-L-Gln] (H-Arg-Gln-OH)" result_units=mM test_result=17.2
compound="NC(=O)CC[C@H](NC(=O)[C@@H](N)CO)C(=O)O [L-Ser-L-Gln] (H-Ser-Gln-OH)" result_units=mM test_result=12.9

Let us examine a further case.
Input line: Give reported Produced peptide value for CC(C)[C@H](N)C(=O)N[C@@H](CCC(N)=O)C(=O)O [L-Val-L-Gln] (H-Val-Gln-OH)
Output line: 8.2
